test system: BALB/c female mice; experiment: Respiratory tract inflammation suppressing action, OVA-induced (Test Example 6); type: in vivo; settings: orally 30 mg/kg once a day for 5 days; inhalation of 2% OVA; alveoli washed after 24 hours
ATTRIBUTE_MEASURED: Total WBC count x 10E5/ml/mouse (x 10E5/ml/mouse)

- CHEMICAL_STRUCTURE: "Cl.NCCCN(CCc1cccs1)S(=O)(=O)c1cccc2cnccc12"
  TESTED_SYSTEM: "BALB/c female mice"
  DATA_VALUE: 200
- CHEMICAL_STRUCTURE: "Cl.NCCN(CCS(=O)(=O)c1ccccc1)S(=O)(=O)c1cccc2c(O)nccc12"
  TESTED_SYSTEM: "BALB/c female mice"
  DATA_VALUE: 100
- CHEMICAL_STRUCTURE: "Cl.NCCCN(CCCc1ccccc1)S(=O)(=O)c1cccc2cnccc12"
  TESTED_SYSTEM: "BALB/c female mice"
  DATA_VALUE: 300
- CHEMICAL_STRUCTURE: "Cl.NCCCOc1cccc2c(N)nccc12"
  TESTED_SYSTEM: "BALB/c female mice"
  DATA_VALUE: 150
- CHEMICAL_STRUCTURE: "Cl.NCCN(CCS(=O)(=O)c1ccccc1)S(=O)(=O)c1cccc2cnccc12"
  TESTED_SYSTEM: "BALB/c female mice"
  DATA_VALUE: 400

----------
tested on: human neutrophil fraction; assay: Action on increase of intracellular calcium concentration, Fura2-AM, fMLP (Test Example 7); type: cell-based; conditions: test compound 1 µM added 3 minutes before fMLP (1 µM), R = F340/F380, without test compound = 100%, read-out: Maximum R value (%)

- MOLECULE: "Cl.NCCCN(CCCc1ccccc1)S(=O)(=O)c1cccc2c(N)nccc12 [Example 8, hydrochloride]"
  activity at 1 µM: "99%"
- MOLECULE: "Cl.NCCCOc1cccc2c(N)nccc12 [Example 10, hydrochloride]"
  activity at 1 µM: "99%"
- MOLECULE: "Cl.NCCCN(CCc1cccs1)S(=O)(=O)c1cccc2cnccc12 [Example 2, hydrochloride]"
  activity at 1 µM: "99%"
- MOLECULE: "Cl.NCCCN(CCCc1ccccc1)S(=O)(=O)c1cccc2cnccc12 [Example 1, hydrochloride]"
  activity at 1 µM: "98%"
- MOLECULE: "Cl.NCCN(CCS(=O)(=O)c1ccccc1)S(=O)(=O)c1cccc2cnccc12 [Example 7, hydrochloride]"
  activity at 1 µM: "101%"
- MOLECULE: "Cc1cncc2cccc(S(=O)(=O)N(CCCN)CCCc3ccccc3)c12.Cl [Example 5, hydrochloride]"
  activity at 1 µM: "98%"
- MOLECULE: "Cl.c1cc(NC2CCNCC2)c2ccncc2c1 [Example 20, hydrochloride]"
  activity at 1 µM: "100%"

Source of measurements: patent EP1541559A1
